Reference source for all entries: PubChem BioAssay (NCI)

System: COLO 205 colon
Experimental Details: NCI-60 one-dose screen, 48 h (100 = growth as untreated, 0 = no growth, -100 = all killed)
Condition Summary: 10 µM unless noted
About 83,000 compounds went through this panel and 20% of them were active in at least one assay; those are over-represented in the sample as a whole.

[
  {
    "Compound": "CN1C(=O)N(C)C2C1NN=c1s/c(=C\\c3ccc(Br)cc3)c(=O)n12 (stereo not given)",
    "growth (%)": 0.786
  },
  {
    "Compound": "COc1ccccc1CNCCCN1C(=O)c2ccc3c4c(ccc(c24)C1=O)C(=O)N(CCCCNCCCN)C3=O",
    "growth (%)": -83.7
  },
  {
    "Compound": "C=CC(=O)N1CN(C(=O)C=C)CN(C(=O)C=C)C1",
    "growth (%)": -44.4
  },
  {
    "Compound": "C#Cc1cccc(Nc2nc3cc([N+](=O)[O-])ccc3nc2Nc2ccc(O)cc2)c1",
    "growth (%)": -49.9
  },
  {
    "Compound": "O=[N+]([O-])c1ccc(SSc2ccc([N+](=O)[O-])cc2Cl)c(Cl)c1",
    "growth (%)": 127
  },
  {
    "Compound": "CC(C)(C)c1cc(C[P+](c2ccccc2)(c2ccccc2)c2ccccc2)cc(C(C)(C)C)c1O",
    "growth (%)": -92.6
  },
  {
    "Compound": "C=CCCCCOc1cccc(/C=C2\\N=C3SCCCN3C2=O)c1",
    "growth (%)": 101
  },
  {
    "Compound": "O=C1Nc2ccc(Cl)cc2/C1=C\\c1c(-c2ccc(F)cc2)nc2ccccn12",
    "growth (%)": 45.7
  },
  {
    "Compound": "O=C1OCC2=C1C(c1ccccc1)c1cc3c(cc1N2CCO)CCC3 (stereo not given)",
    "growth (%)": -81.7
  },
  {
    "Compound": "COc1cc(-c2nc(-c3ccc(-c4nc5ccc(F)cc5[nH]4)cc3)no2)cc(OC)c1OC",
    "growth (%)": 60.4
  }
]

---

Tested on: SR leukemia
Experimental Details: NCI-60 one-dose screen, 48 h (100 = growth as untreated, 0 = no growth, -100 = all killed)
Condition Summary: 10 µM unless noted
The panel holds about 83,000 compounds, 20% with a hit somewhere; the sample as a whole holds those more often.
Reported growth is given for each of the following molecules.

[
  {
    "Molecule": "NC(CCC(=O)NC(CS)C(=O)NCC(=O)O)C(=O)O (stereo unspecified)",
    "growth [%]": 97.3
  },
  {
    "Molecule": "O=C1N(Cc2ccccc2Cl)c2ccccc2C12NN=C(c1ccccc1)S2 (stereo unspecified)",
    "growth [%]": 40
  },
  {
    "Molecule": "COc1ccc(-c2nn(C(=O)NCCN(C)C)cc2-c2ccncc2)cc1Cl",
    "growth [%]": 20.5
  },
  {
    "Molecule": "O=C1SCN(Cc2ccccc2)CN1Cc1ccccc1",
    "growth [%]": 8.82
  },
  {
    "Molecule": "Cc1cc(N)cc(C)c1-c1c(Br)cc(N)cc1Br",
    "growth [%]": 9.99
  },
  {
    "Molecule": "O=C(CSc1nnc(Cc2ccccc2Nc2c(Cl)cccc2Cl)n1-c1ccccc1)N1N=C(c2ccc3ccccc3c2)CC1c1ccc(Cl)cc1 (stereo unspecified)",
    "growth [%]": 97.2
  },
  {
    "Molecule": "Cc1ccc(Nc2cccc3ccccc23)cc1",
    "growth [%]": 62.1
  },
  {
    "Molecule": "c1ccc(-c2nnn(-c3ccccc3)n2)cc1",
    "growth [%]": 89
  },
  {
    "Molecule": "C=C(c1ccc(C(=O)NCCCn2ccnc2)cc1)c1cc2c(cc1C)C(C)(C)CCC2(C)C",
    "growth [%]": -27.2
  },
  {
    "Molecule": "CN1CCCN(CCNc2nccc(-c3c(-c4cccc(O)c4)nc4sccn34)n2)S1(=O)=O",
    "growth [%]": 13.9
  },
  {
    "Molecule": "OC(COCc1ccccc1)COCc1ccccc1",
    "growth [%]": 89.2
  },
  {
    "Molecule": "CC[C@H](C)[C@H](N)C(=O)O",
    "growth [%]": 90.7
  },
  {
    "Molecule": "COc1ccc2[nH]cc(C3(c4c[nH]c5ccc(OC)cc45)C(=O)Nc4ccc(Cl)cc43)c2c1",
    "growth [%]": 7.95
  },
  {
    "Molecule": "CC(=O)O[C@H]1CC[C@]2(C)[C@H]3CC=C4[C@@H]5CC(C)(C)CC[C@]5(C(=O)OCC(COC(=O)C(Cl)Cl)(COC(=O)C(Cl)Cl)NC(=O)C(Cl)Cl)CC[C@@]4(C)[C@]3(C)CC[C@H]2C1(C)C",
    "growth [%]": 60.3
  },
  {
    "Molecule": "CN1C(=O)N(C)C2C1NN=c1s/c(=C\\c3ccc(Br)cc3)c(=O)n12 (stereo unspecified)",
    "growth [%]": 13.5
  },
  {
    "Molecule": "COc1cc(/C=N/NC(=O)Cn2c(-c3ccc(C)o3)nc3ccccc32)ccc1OCc1ccccc1",
    "growth [%]": 74.5
  },
  {
    "Molecule": "Clc1ccc(C2=NN[C@H](c3cn(-c4ccccc4)nc3-c3ccccc3)C2)cc1",
    "growth [%]": 104
  },
  {
    "Molecule": "C=C1C[C@@]2(C)C(CC[C@]3(C)C2CC=C2C4CC(C)(C)C[C@@H](OC(=O)/C(C)=C\\C)[C@]4(C(=O)O)CC[C@]23C)C(C)(C)C1=O (stereo partly specified)",
    "growth [%]": -0.663
  },
  {
    "Molecule": "COc1ccc(-c2nc(SCCC(C)C)nc(Nc3ccc(C(=O)O)cc3)c2C#N)cc1",
    "growth [%]": 77.3
  },
  {
    "Molecule": "COc1cccc(/C=N\\Nc2ccc([N+](=O)[O-])cn2)c1O",
    "growth [%]": 48.3
  },
  {
    "Molecule": "CC(=O)c1ccc(Br)c([N+](=O)[O-])c1",
    "growth [%]": 94.5
  },
  {
    "Molecule": "c1ccc2oc(-c3cnc4nonc4n3)cc2c1",
    "growth [%]": 106
  },
  {
    "Molecule": "O=S(=O)(Cc1ccc(Cl)cc1Cl)c1ccc(Cl)cc1",
    "growth [%]": 24.3
  },
  {
    "Molecule": "COc1cc(CN(CCC(O)N2CCCC2=O)Cc2ccc3c(c2)OCO3)cc(OC)c1OC (stereo unspecified)",
    "growth [%]": 86.3
  },
  {
    "Molecule": "Oc1ccccc1-c1nnc(COc2ccc(Cl)cc2Cl)o1",
    "growth [%]": 36
  },
  {
    "Molecule": "CSc1ccc(/C=C2\\C=C(CC(=O)NCc3ccc(C(=O)c4ccccc4)cc3)c3cc(F)ccc32)cc1",
    "growth [%]": 10.3
  },
  {
    "Molecule": "O=C(/C=C/c1ccccc1)c1c[nH]c2ccccc2c1=O",
    "growth [%]": 10.8
  },
  {
    "Molecule": "Clc1ccc(-c2cnc3c(-c4ccnc(N5CCNCC5)c4)cnn3c2)cc1",
    "growth [%]": -0.57
  },
  {
    "Molecule": "COc1cc(C)c(Cl)cc1C1=NN(c2ccc(S(N)(=O)=O)cc2)C(/C=C/c2ccccc2)C1 (stereo unspecified)",
    "growth [%]": 66.7
  },
  {
    "Molecule": "Cn1cnc([N+](=O)[O-])c1S(=O)(=O)Oc1cccc2ccccc12",
    "growth [%]": 17.5
  },
  {
    "Molecule": "COc1cc(NCC(O)CN(CC(C)C)CC(C)C)c2ncccc2c1 (stereo unspecified)",
    "growth [%]": 50.6
  },
  {
    "Molecule": "CCNCCCn1c2c(c3ccc(Cl)cc3c1=O)C(=O)c1cc(OC)cnc1-2",
    "growth [%]": -63.6
  },
  {
    "Molecule": "CC(C)CC(=O)C(CCc1ccccn1)C(C)C (stereo unspecified)",
    "growth [%]": 108
  },
  {
    "Molecule": "CC(=O)Oc1ccccc1C(=O)Nc1ncc([N+](=O)[O-])s1",
    "growth [%]": 13.1
  },
  {
    "Molecule": "COc1cc(C2CC(c3ccccc3)=NN2C=O)ccc1Oc1ccnc2cc(Cl)ccc12 (stereo unspecified)",
    "growth [%]": 50.4
  },
  {
    "Molecule": "COc1ccc(-c2cc(C(=O)Nc3ccc(C)cc3)nc3[nH]c(=O)sc23)cc1",
    "growth [%]": 76.8
  },
  {
    "Molecule": "COc1cc(NCCC2CCCCN2)c2ncccc2c1OC (stereo unspecified)",
    "growth [%]": 73.8
  },
  {
    "Molecule": "O=C(NNC(=O)c1cccc(Cl)c1)c1ccccc1",
    "growth [%]": 85.8
  },
  {
    "Molecule": "O=C(CCCCCCN1CC(=O)N2[C@@H](c3ccc(Cl)c(Cl)c3)c3[nH]c4ccccc4c3C[C@H]2C1=O)NO",
    "growth [%]": 7.56
  },
  {
    "Molecule": "COc1ccc(NC(=O)Cn2c(=O)sc3c(-c4ccc(Cl)cc4)cc(-c4ccc(Cl)cc4)nc32)cc1",
    "growth [%]": 63.3
  },
  {
    "Molecule": "O=C(CCl)Nc1ccc2c(c1)C(=O)c1ccccc1C2=O",
    "growth [%]": -10.3
  }
]
